Method summary: M. tuberculosis growth inhibition, HTS (AID 1259417);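 also: bacteria grown with compound for 5 days at 37 °C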
Condition set: M. tuberculosis DsRed fluorescence growth inhibition; concentration not given here
Screen size: about 1,100 compounds; about 760 (69%) were called active. No rule for the calls is given here. The set was probably picked from earlier hits. The list shows a part of the results.
Just give me one of these, please: 1 for active, -1 for inactive

Recorded results for 4 molecules are shown here.
Molecule: O=C(Nc1nnc(-c2cc(Cl)ccc2Cl)o1)c1ccc(Cl)s1
Label class: -1

Molecule: O=C(Nc1nnc(-c2cc(Cl)ccc2Cl)o1)c1ccc(Br)s1
Label class: 1

Molecule: O=C(Nc1nnc(-c2ccc3c(c2)CCCC3)o1)c1ccco1
Label class: -1

Molecule: O=C(Nc1nnc(-c2ccc3c(c2)CCCC3)o1)c1ccccc1Cl
Label class: -1

Prompt: Dear colleague, could you share the recorded outcome for O=C(Nc1nnc(-c2cc(Cl)ccc2Cl)o1)c1cccs1 when you have a moment?
Response: 1

Prompt: Dear colleague, could you share the recorded outcome for O=C(Nc1nnc(-c2cc(Cl)ccc2Cl)o1)c1ccccc1F when you have a moment?
Response: 1

src = PubChem BioAssay AID1259417
